Values compiled from PubChem BioAssay AID280.

test system: nude mice, LOX melanoma ip, survival T/C; assay: NCI In Vivo Anticancer Drug Screen. Data for tumor model Human Amelanotic Melanoma (LOX) (intraperitoneal) in NU/NU BALB/C (nude) mice; settings: endpoint: median survival time; dose: 150.0 mg/kg/injection; schedule: Q04DX003 (ip); vehicle: saline
Toxic doses and inconclusive results are not listed. How the source made its calls: active means survival T/C of 150% or more; inactive means T/C below 125% in these data.
One label from this list, please: active, inactive

Below, 3 compounds whose answers are already recorded.
1) NCc1cc(O)c(O)c(O)c1
inactive
2) CC#CCOCC(O)CCl (centres undefined)
inactive
3) CC(C)NC(=O)OCc1c(COC(=O)NC(C)C)c(-c2ccc(Cl)c(Cl)c2)n2c1CCC2
active

Recorded test call requested for "c1cn[nH]c1"
inactive
